Would you mind telling me the reported MIC50 of each entry?
Tested on: aspergillus fumigatus infection of BEAS2B cells
PROTOCOL DESCRIPTION: Aspergillus fumigatus infection of bronchial epithelial cells (GM in supernatant)
Assay type: cell-based
CONDITION DETAILS: bronchial epithelial cells infected with Aspergillus fumigatus; read-out: MIC50 Infection of BEAS2B cells
The answer is to be given in µM; state only the numeric part.

Fill blank: measured MIC50 of the compound Cc1cc(N2CCN(c3ccc(C(=O)Nc4ccc(F)cc4)cc3C)CC2)ccc1OC[C@@H]1CO[C@@](Cn2cncn2)(c2ccc(F)cc2F)C1 [Example 32] is ____.
0.0261

Reported MIC50 for Cc1cc(N2CCN(c3ccc(C(=O)Nc4cccc(F)c4)cc3)CC2)ccc1OC[C@@H]1CO[C@@](Cn2cncn2)(c2ccc(F)cc2F)C1 [Example 14] : what is it?
0.00836

// MIC50 lookup, key: Cc1cc(N2CCN(c3ccc(C(=O)Nc4cccc(C#N)n4)cc3)CC2)ccc1OC[C@@H]1CO[C@@](Cn2cncn2)(c2ccc(F)cc2F)C1 [Example 36]
0.00352

Name the recorded MIC50 for Cc1cc(N2CCN(c3ccc(C(=O)Nc4ccc(S(N)(=O)=O)cc4)cc3)CC2)ccc1OC[C@@H]1CO[C@@](Cn2cncn2)(c2ccc(F)cc2F)C1 [Example 19] .
0.0172

Returns the measured MIC50 for the input compound. Input: Cc1cc(N2CCN(c3ccc(C(=O)Nc4cccc(C#N)c4)cc3)CC2)ccc1OC[C@@H]1CO[C@@](Cn2cncn2)(c2ccc(F)cc2F)C1 [Example 8]
0.0142

###

PROTOCOL DESCRIPTION: Cell viability: resazurin assay
Type: cell-based, human
CONDITION DETAILS: human, BEAS2B cells; n = 3-5
I'd appreciate it if you could supply CC50 at 1 day values for the items below.

Query (molecule): O=C(Nc1ccc(F)cc1)c1ccc(N2CCN(c3ccc(OCC4CO[C@@](Cn5cncn5)(c5ccc(F)cc5F)C4)c(Cl)c3)CC2)cc1 (stereo in doubt) ; field requested: CC50 at 1 day
> 14.2 µM

Give the measured CC50 at 1 day of N#Cc1ccc(NC(=O)c2ccc(N3CCN(c4ccc(OCC5CO[C@@](Cn6cncn6)(c6ccc(F)cc6F)C5)c(F)c4)CC3)cc2)c(F)c1 (stereo in doubt) .
> 14.1 µM

Please give the measured CC50 at 1 day for this molecule: Cc1cc(N2CCN(c3ccc(C(=O)Nc4cc(F)cc(F)c4)cc3)CC2)ccc1OC[C@@H]1CO[C@@](Cn2cncn2)(c2ccc(F)cc2F)C1
> 14.3 µM

Consider the molecule shown here: O=C(Nc1ccc(F)cn1)c1ccc(N2CCN(c3ccc(OCC4CO[C@@](Cn5cncn5)(c5ccc(F)cc5F)C4)c(F)c3)CC2)cc1 (stereo in doubt) What is its recorded CC50 at 1 day?
> 14.5 µM

Entry Cc1cc(N2CCN(c3ccc(C(=O)Nc4ccc(F)cc4)cc3C)CC2)ccc1OC[C@@H]1CO[C@@](Cn2cncn2)(c2ccc(F)cc2F)C1 has what CC50 at 1 day?
> 14.4 µM

Return reported CC50 at 1 day; argument: Cc1cc(N2CCN(c3ccc(C(=O)Nc4cccc(C#N)n4)cc3)CC2)ccc1OC[C@@H]1CO[C@@](Cn2cncn2)(c2ccc(F)cc2F)C1
> 14.5 µM

###

Answer each item with its documented MIC.
Tested on: Aspergillus fumigatus NCPF2010
PROTOCOL DESCRIPTION: Broth microdilution assay (modified EUCAST)
Type: cell-based
CONDITION DETAILS: Aspergillus fumigatus, NCPF2010, read-out: MIC75 against Aspergillus fumigatus isolate NCPF2010
Just the number please, in µM, no unit attached.

Given O=C(Nc1ccc(F)cn1)c1ccc(N2CCN(c3ccc(OCC4CO[C@@](Cn5cncn5)(c5ccc(F)cc5F)C4)c(F)c3)CC2)cc1 (stereo in doubt) , state its recorded MIC.
0.0125

MIC lookup needed for Cc1cc(N2CCN(c3ccc(C(=O)Nc4ccc(F)cn4)cc3)CC2)ccc1OC[C@@H]1CO[C@@](Cn2cncn2)(c2ccc(F)cc2F)C1 , thanks.
0.0125

Entry CNS(=O)(=O)c1ccc(NC(=O)c2ccc(N3CCN(c4ccc(OC[C@@H]5CO[C@@](Cn6cncn6)(c6ccc(F)cc6F)C5)c(C)c4)CC3)cc2)cc1 : reported MIC = ?
0.0188

All values here come from patent US20230295133A1.
